Test system: MDA-MB-435
Assay: NCI tumour cell line growth inhibition, 48 h
Active and inactive are the calls of the source. Cut-off read from the data, not from the text of the source: active = GI50 up to about 1.1 µM and inactive = higher.
Answer with one of the outcomes given here: true = active, false = inactive

Here's what some known entries look like.
compound	class
C=CCN1C(=O)/C(=C/c2ccccc2)NC1=S	false
CCCCCCCCC/C=C1\CCC(CN2CCOCC2)C1=O (centres undefined)	false
Cn1c(=S)c2nc(SCCN3CCCC3)[nH]c2n(C)c1=O	false
Cc1nc(SCC(=O)Nc2ccc(Cl)cc2)c2sc(=S)n(-c3ccccc3)c2n1	false
COc1ccc(-c2coc3cc(O)ccc3c2=O)cc1	false

Could you check what this test reported for N#CC(C/C=C/c1ccccc1)NNC(=O)c1c(Cl)c(Cl)c(Cl)c(Cl)c1-c1nc2cc(C(=O)c3ccccc3)ccc2[nH]1 (centres undefined) ?
false

I'd appreciate the recorded outcome for CCOC(=O)C(C(=O)OCC)=C1SC(=N\c2ccccc2)/C(=N/c2ccccc2)N1c1ccccc1 from this test.
false

Which result was noted for this compound in the test: CCOc1ccc2c(C)cc(=O)oc2c1
false

Please state the recorded outcome for this compound: COc1ccccc1N1C(=O)/C(=C\c2cc(OC)c(OC)c(OC)c2)SC1c1ccccc1 (centres undefined)
false

Hi, sorry to bother you, what did the test record for CC(=O)Oc1ccc(/C=C/C(=O)O[C@H]2CCCC[C@@H]2OC(=O)/C=C/c2ccc(OC(C)=O)c(OC(C)=O)c2)cc1OC(C)=O ?
false

Could you check what this test reported for Nc1nc2c(c(=O)[nH]1)N=C(COP(=O)(O)OP(=O)(O)O)CN2 ?
false
